test system: UT-SCC-44; test: drug sensitivity score (DSS); higher = more sensitive; extreme values may be limits of the assay; conditions: culture condition: plastic 2D (no matrix); treatment time: 3 days
Give yes when the value for drug sensitivity score is at least 6 DSS. Give no when it is less.

Cn1c(=O)n(-c2ccc(C(C)(C)C#N)cc2)c2c3cc(-c4cnc5ccccc5c4)ccc3ncc21 no
CO[C@H]1C[C@@H]2CC[C@@H](C)[C@@](O)(O2)C(=O)C(=O)N2CCCC[C@H]2C(=O)O[C@H]([C@H](C)C[C@@H]2CC[C@@H](OCCO)[C@H](OC)C2)CC(=O)[C@H](C)/C=C(\C)[C@@H](O)[C@@H](OC)C(=O)[C@H](C)C[C@H](C)/C=C/C=C/C=C/1C no
Cc1c(CN2CCN(C(=O)[C@H](C)O)CC2)sc2c(N3CCOCC3)nc(-c3cnc(N)nc3)nc12 yes
Cn1c(=O)c(F)c(Nc2ccc(I)cc2F)c2c(=O)n(C[C@@H](O)CO)cnc21 yes
CC(=O)Nc1cccc(-n2c(=O)n(C3CC3)c(=O)c3c(Nc4ccc(I)cc4F)n(C)c(=O)c(C)c32)c1 yes
COc1cc(F)c(F)c(Nc2ccc(I)cc2F)c1NS(=O)(=O)C1(C[C@H](O)CO)CC1 yes
C#Cc1cccc(Nc2ncnc3cc(OCCOC)c(OCCOC)cc23)c1 no
COc1ccc(-c2cc3c(C)nc(N)nc3n([C@H]3CC[C@H](OCCO)CC3)c2=O)cn1 no
CN(C)C/C=C/C(=O)Nc1cc2c(Nc3ccc(F)c(Cl)c3)ncnc2cc1O[C@H]1CCOC1 no
COc1ncc(-c2ccc3nccc(-c4ccnnc4)c3c2)cc1NS(=O)(=O)c1ccc(F)cc1F yes

###

// reported drug sensitivity score for each item listed
system: UT-SCC-42A; assay: drug sensitivity score (DSS); higher = more sensitive; extreme values may be limits of the assay; details: culture condition: embedded in Myogel + collagen I; treatment time: 3 days
observable: drug sensitivity score (DSS)

C#Cc1cccc(Nc2ncnc3cc(OCCOC)c(OCCOC)cc23)c1 0
CN(C)C/C=C/C(=O)Nc1cc2c(Nc3ccc(F)c(Cl)c3)ncnc2cc1O[C@H]1CCOC1 0.767
Cn1c(=O)n(-c2ccc(C(C)(C)C#N)cc2)c2c3cc(-c4cnc5ccccc5c4)ccc3ncc21 0
COc1cc(F)c(F)c(Nc2ccc(I)cc2F)c1NS(=O)(=O)C1(C[C@H](O)CO)CC1 8.7
Cn1c(=O)c(F)c(Nc2ccc(I)cc2F)c2c(=O)n(C[C@@H](O)CO)cnc21 8.73
COc1ncc(-c2ccc3nccc(-c4ccnnc4)c3c2)cc1NS(=O)(=O)c1ccc(F)cc1F 18.2
CO[C@H]1C[C@@H]2CC[C@@H](C)[C@@](O)(O2)C(=O)C(=O)N2CCCC[C@H]2C(=O)O[C@H]([C@H](C)C[C@@H]2CC[C@@H](O)[C@H](OC)C2)CC(=O)[C@H](C)/C=C(\C)[C@@H](O)[C@@H](OC)C(=O)[C@H](C)C[C@H](C)/C=C/C=C/C=C/1C 9.5
Cn1cnc2c(F)c(Nc3ccc(Br)cc3Cl)c(C(=O)NOCCO)cc21 4.23
C=CC(=O)Nc1cc2c(Nc3ccc(F)c(Cl)c3)ncnc2cc1OCCCN1CCOCC1 7.67
Cc1c(CN2CCN(C(=O)[C@H](C)O)CC2)sc2c(N3CCOCC3)nc(-c3cnc(N)nc3)nc12 8.1
O=C(NC[C@H](O)CO)c1ccncc1Nc1ccc(I)cc1F 9.43

###

system: UT-SCC-106A; assay: drug sensitivity score (DSS); higher = more sensitive; extreme values may be limits of the assay; conditions: culture condition: embedded in Matrigel; treatment time: 3 days
The reader will find reported drug sensitivity score values listed item by item below.

molecule	drug sensitivity score [DSS]
COc1ccc(-c2cc3c(C)nc(N)nc3n([C@H]3CC[C@H](OCCO)CC3)c2=O)cn1	17.5
CO[C@H]1C[C@@H]2CC[C@@H](C)[C@@](O)(O2)C(=O)C(=O)N2CCCC[C@H]2C(=O)O[C@H]([C@H](C)C[C@@H]2CC[C@@H](OP(C)(C)=O)[C@H](OC)C2)CC(=O)[C@H](C)/C=C(\C)[C@@H](O)[C@@H](OC)C(=O)[C@H](C)C[C@H](C)/C=C/C=C/C=C/1C [Ridaforolimus]	4.2
O=C(NC[C@H](O)CO)c1ccncc1Nc1ccc(I)cc1F [Pimasertib]	19.4
CN(C)C/C=C/C(=O)Nc1cc2c(Nc3ccc(F)c(Cl)c3)ncnc2cc1O[C@H]1CCOC1 [Afatinib]	10.9
CC(=O)Nc1cccc(-n2c(=O)n(C3CC3)c(=O)c3c(Nc4ccc(I)cc4F)n(C)c(=O)c(C)c32)c1 [Trametinib]	15.3
COc1ncc(-c2ccc3nccc(-c4ccnnc4)c3c2)cc1NS(=O)(=O)c1ccc(F)cc1F [Omipalisib]	22.8

###

system: UT-SCC-24A; test: relative IC50 (midpoint of the fitted curve; maximal inhibition may be below 50%); higher = less potent; conditions: culture condition: embedded in Matrigel; treatment time: 3 days
// relative IC50 lookup, one value per entry
observable: relative IC50 (nM)

C=CC(=O)Nc1cc2c(Nc3ccc(F)c(Cl)c3)ncnc2cc1OCCCN1CCOCC1 38.1
CN(C)C/C=C/C(=O)Nc1cc2c(Nc3ccc(F)c(Cl)c3)ncnc2cc1O[C@H]1CCOC1 8.03
COc1ncc(-c2ccc3nccc(-c4ccnnc4)c3c2)cc1NS(=O)(=O)c1ccc(F)cc1F 4.17

###

tested on: UT-SCC-28; experiment: maximal % inhibition of viability relative to DMSO; higher = stronger effect; conditions: culture condition: plastic 2D (no matrix); treatment time: 3 days
Lab note - cut at 20% for maximal % inhibition of viability: YES if strictly below, NO if not.

CN(C)C/C=C/C(=O)Nc1cc2c(Nc3ccc(F)c(Cl)c3)ncnc2cc1O[C@H]1CCOC1 YES
Cn1cnc2c(F)c(Nc3ccc(Br)cc3F)c(C(=O)NOCCO)cc21 NO
Cn1c(=O)c(F)c(Nc2ccc(I)cc2F)c2c(=O)n(C[C@@H](O)CO)cnc21 NO
CC(=O)Nc1cccc(-n2c(=O)n(C3CC3)c(=O)c3c(Nc4ccc(I)cc4F)n(C)c(=O)c(C)c32)c1 NO
CO[C@H]1C[C@@H]2CC[C@@H](C)[C@@](O)(O2)C(=O)C(=O)N2CCCC[C@H]2C(=O)O[C@H]([C@H](C)C[C@@H]2CC[C@@H](OC(=O)C(C)(CO)CO)[C@H](OC)C2)CC(=O)[C@H](C)/C=C(\C)[C@@H](O)[C@@H](OC)C(=O)[C@H](C)C[C@H](C)/C=C/C=C/C=C/1C NO
Cn1cnc2c(F)c(Nc3ccc(Br)cc3Cl)c(C(=O)NOCCO)cc21 NO
C#Cc1cccc(Nc2ncnc3cc(OCCOC)c(OCCOC)cc23)c1 YES
CO[C@H]1C[C@@H]2CC[C@@H](C)[C@@](O)(O2)C(=O)C(=O)N2CCCC[C@H]2C(=O)O[C@H]([C@H](C)C[C@@H]2CC[C@@H](OP(C)(C)=O)[C@H](OC)C2)CC(=O)[C@H](C)/C=C(\C)[C@@H](O)[C@@H](OC)C(=O)[C@H](C)C[C@H](C)/C=C/C=C/C=C/1C NO
C=CC(=O)Nc1cc2c(Nc3ccc(F)c(Cl)c3)ncnc2cc1OCCCN1CCOCC1 NO

###

Measured drug sensitivity score values are reported for all entries that follow.
tested on: UT-SCC-44; experiment: drug sensitivity score (DSS); higher = more sensitive; extreme values may be limits of the assay; settings: culture condition: embedded in Myogel + collagen I; treatment time: 3 days
observable: drug sensitivity score (DSS)

CC(=O)Nc1cccc(-n2c(=O)n(C3CC3)c(=O)c3c(Nc4ccc(I)cc4F)n(C)c(=O)c(C)c32)c1 4.27
CO[C@H]1C[C@@H]2CC[C@@H](C)[C@@](O)(O2)C(=O)C(=O)N2CCCC[C@H]2C(=O)O[C@H]([C@H](C)C[C@@H]2CC[C@@H](OCCO)[C@H](OC)C2)CC(=O)[C@H](C)/C=C(\C)[C@@H](O)[C@@H](OC)C(=O)[C@H](C)C[C@H](C)/C=C/C=C/C=C/1C 5.4
CO[C@H]1C[C@@H]2CC[C@@H](C)[C@@](O)(O2)C(=O)C(=O)N2CCCC[C@H]2C(=O)O[C@H]([C@H](C)C[C@@H]2CC[C@@H](O)[C@H](OC)C2)CC(=O)[C@H](C)/C=C(\C)[C@@H](O)[C@@H](OC)C(=O)[C@H](C)C[C@H](C)/C=C/C=C/C=C/1C 13.9
O=C(NC[C@H](O)CO)c1ccncc1Nc1ccc(I)cc1F 11.7
C#Cc1cccc(Nc2ncnc3cc(OCCOC)c(OCCOC)cc23)c1 0.133
CN(C)C/C=C/C(=O)Nc1cc2c(Nc3ccc(F)c(Cl)c3)ncnc2cc1O[C@H]1CCOC1 0
Cn1c(=O)n(-c2ccc(C(C)(C)C#N)cc2)c2c3cc(-c4cnc5ccccc5c4)ccc3ncc21 0
Cn1c(=O)c(F)c(Nc2ccc(I)cc2F)c2c(=O)n(C[C@@H](O)CO)cnc21 3.67
Cn1cnc2c(F)c(Nc3ccc(Br)cc3Cl)c(C(=O)NOCCO)cc21 4.83

Data credit: the supplement of paper PMC7017272
